Measured values drawn from patent EP4039268A1 for this set.

target: T1, human recombinant soluble ACE2 (human, UniProt Q9BYF1 18-740); experiment: ELISA screen
T1 construct: also called hrsACE2
T1 sequence (Q9BYF1 18-740 limits assumed): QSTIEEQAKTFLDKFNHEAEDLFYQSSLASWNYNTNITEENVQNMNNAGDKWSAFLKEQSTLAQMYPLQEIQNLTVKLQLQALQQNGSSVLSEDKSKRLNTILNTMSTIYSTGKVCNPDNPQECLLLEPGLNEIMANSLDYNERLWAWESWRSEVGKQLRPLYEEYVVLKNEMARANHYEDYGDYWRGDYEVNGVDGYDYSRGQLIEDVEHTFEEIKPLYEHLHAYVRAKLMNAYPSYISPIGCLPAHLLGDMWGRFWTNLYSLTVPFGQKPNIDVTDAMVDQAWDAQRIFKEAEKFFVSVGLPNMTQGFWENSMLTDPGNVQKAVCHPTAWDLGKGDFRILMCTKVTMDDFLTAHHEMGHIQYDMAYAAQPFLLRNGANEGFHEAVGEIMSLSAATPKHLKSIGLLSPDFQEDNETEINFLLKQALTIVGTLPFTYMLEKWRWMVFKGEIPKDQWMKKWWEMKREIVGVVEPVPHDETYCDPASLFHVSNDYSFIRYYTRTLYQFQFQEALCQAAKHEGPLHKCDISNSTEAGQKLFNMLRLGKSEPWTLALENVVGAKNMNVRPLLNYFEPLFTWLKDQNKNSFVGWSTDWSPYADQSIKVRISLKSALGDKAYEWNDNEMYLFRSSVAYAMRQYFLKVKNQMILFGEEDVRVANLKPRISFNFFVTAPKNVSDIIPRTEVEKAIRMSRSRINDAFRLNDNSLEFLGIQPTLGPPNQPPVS
Entries whose Mean normalized OD is below 0.007 OD take YES; entries at or above 0.007 OD take NO.

Known results for binders:
{"binder": "Clec2e CRD-mouse IgG2a-Fc fusion protein (Fc fusion) FGNKCFYFSEDMGNWTFSQSSCIALDAHLALFDSLEELNFLKRYKGASDHWIGLHRESSEHPWIWTDNTEYNNLVLTRGGGECAYLSNRGIYNSSGDIHKKWICNGGGSGGGSGGGS", "class": "NO"}
{"binder": "Cd209b CRD-mouse IgG2a-Fc fusion protein (Fc fusion) FLLGNCYFFSKSQRNWNDAVTACKEVKAQLVIINSDEEQTFLQQTSKAKGPTWMGLSDLKKEATWLWVDGSTLSSRFQKYWNRGEPNNIGEEDCVEFAGDGWNDSKCELKKFWICKGGGSGGGSGGGS", "class": "YES"}
{"binder": "Pla2r1_1 CRD-mouse IgG2a-Fc fusion protein (Fc fusion) SSRICYQFNLLSSLSWNQAHSSCLMQGGALLSIADEDEEDFIRKHLSKVVKEVWIGLNQLDEKAGWQWSDGTPLSYLNWSQEITPGPFVEHHCGTLEVVSAAWRSRDCESTLPYICKGGGSGGGSGGGS", "class": "YES"}
{"binder": "Layn CRD-mouse IgG2a-Fc fusion protein (Fc fusion) TRRPCYKVIYFHDAFQRLNFEEAKETCMEDGGQLVSIETEDEQRLIEKFIENLLASDGDFWIGLKRLEEKQSNNTACQDLYAWTDGSTSQFRNWYVDEPSCGSEVCVVMYHQPSAPPGIGGSYMFQWNDDRCNMKNNFICKGGGSGGGSGGGS", "class": "YES"}

Below 0.007 OD on Mean normalized OD? Entry Clec2h CRD-mouse IgG2a-Fc fusion protein (Fc fusion) FGSKCFYFSEDMGNWTFSQSSCVASNSHLALFHSLEELNFLKRYKGTSDHWIGLHRASTQHPWIWTDNTEYSNLVLTRGGGECGFLSDNGISSGRSYTHRKWICSGGGSGGGSGGGS
YES

Below 0.007 OD on Mean normalized OD? Entry Mrc2_2 CRD-mouse IgG2a-Fc fusion protein (Fc fusion) FQGHCYRLQAEKRSWQESKRACLRGGGDLLSIHSMAELEFITKQIKQEVEELWIGLNDLKLQMNFEWSDGSLVSFTHWHPFEPNNFRDSLEDCVTIWGPEGRWNDSPCNQSLPSICKGGGSGGGSGGGS
NO

Below 0.007 OD on Mean normalized OD? Entry Clec10a CRD-mouse IgG2a-Fc fusion protein (Fc fusion) CCPLHWTEHEGSCYWFSESEKSWPEADKYCRLENSHLVVVNSLEEQNFLQNRLANVVSWIGLTDQNGPWRWVDGTDFEKGFKNWAPLQPDNWFGHGLGGGEDCAHITTGGPWNDDVCQRTFRWICEMGGGSGGGSGGGS
NO

Below 0.007 OD on Mean normalized OD? Entry Grifin CRD-mouse IgG2a-Fc fusion protein (Fc fusion) FEAFCAGGLAPGWSLTVQGHADAGEEKFEINFLTDAGDIAFHVKPRFSSATVVGNAFQGGRWGQEEVSSIFPLTLGEPFEMEVSADAEHFHIYAQEQKVLQFPHRHRPLATITRVRVLSEHRLAQVELAGGGSGGGSGGGS
NO

Below 0.007 OD on Mean normalized OD? Entry Cd302 CRD-mouse IgG2a-Fc fusion protein (Fc fusion) FQGSCYAFLQVTINVENIEDVRKQCTDHGADMVSIHNEEENAFILDTLQKRWKGPDDLLLGMFYDTDDATFKWYDHSNMTFDKWADQDGEDLVDTCGFLYTKTGEWRKGDCEISSVEGTLGGGSGGGSGGGS
YES
